# assayed.system: human chemokine receptor CCR3 (Homo sapiens)
# Construct: expressed in transfected cells; host or cells: K562 cell line (hCCR3-C1 cells), membrane preparation
# run.description: CCR3 receptor binding assay (SPA, 125I-eotaxin-1 displacement, hCCR3-C1 K562 cell membranes)
# test.conditions: 1 μM test compound; human Eotaxin-1 at human CCR3-Rezeptor; read-out: CCR3 % inh @ 1 μM
measured.parameter: inhibition at 1 µM (%)

Sample records with inhibition at 1 µM:
{"compound": "Cc1cc(CN2CCC(N3C(=O)CC[C@H]3C(=O)N3CCc4cccc(C(F)(F)F)c4C3)CC2)ccc1Cl [Example 56]", "assayed.system": "human chemokine receptor CCR3 (Homo sapiens)", "inhibition at 1 µM [%]": 76}
{"compound": "COc1cc(C(=O)N(C)C)cc(NC(=O)[C@H]2CCC(=O)N2C2CCN(Cc3ccc(Cl)c(C)c3)CC2)n1 [Example 183]", "assayed.system": "human chemokine receptor CCR3 (Homo sapiens)", "inhibition at 1 µM [%]": 75}
{"compound": "CNC(=O)c1cccc(NC(=O)[C@H]2CCC(=O)N2C2CCN(Cc3ccc(C)c(C)c3)CC2)c1 [Example 205]", "assayed.system": "human chemokine receptor CCR3 (Homo sapiens)", "inhibition at 1 µM [%]": 76}
{"compound": "Cc1cc(CN2CCC(N3C(=O)CC[C@H]3C(=O)Nc3ccc4c(c3)CCC(=O)N4)CC2)ccc1Cl [Example 23]", "assayed.system": "human chemokine receptor CCR3 (Homo sapiens)", "inhibition at 1 µM [%]": 95}

(P) CNC(=O)c1cc(NC(=O)[C@H]2CCC(=O)N2C2CCN(Cc3ccc(Cl)c(C)c3)CC2)cc(C(=O)NC)c1 [Example 7]
(Q) Cc1cc(CN2CCC(N3C(=O)CC[C@H]3C(=O)NCc3ccccc3)CC2)ccc1Cl [Example 46]
Query: Field: entry with larger inhibition at 1 µM (options P / Q ). Write down the label of the entry you select.
Response: P
(P: 97%, Q: 44%)

---

# assayed.system: human chemokine receptor CCR3 (Homo sapiens, UniProt P51677)
# Construct: expressed in transfected cells; host or cells: K562 cell line (hCCR3-C1 cells), membrane preparation
# Sequence (P51677 1-355): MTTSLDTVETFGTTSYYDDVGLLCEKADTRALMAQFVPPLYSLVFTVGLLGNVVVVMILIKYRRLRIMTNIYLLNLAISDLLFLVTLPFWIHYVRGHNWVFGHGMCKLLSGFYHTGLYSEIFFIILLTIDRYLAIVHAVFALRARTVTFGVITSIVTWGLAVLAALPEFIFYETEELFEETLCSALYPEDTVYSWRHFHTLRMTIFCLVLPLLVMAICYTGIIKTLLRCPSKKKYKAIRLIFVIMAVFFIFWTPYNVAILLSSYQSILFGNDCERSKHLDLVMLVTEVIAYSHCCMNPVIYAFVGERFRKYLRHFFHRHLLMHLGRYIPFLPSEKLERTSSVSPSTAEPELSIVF
# run.description: CCR3 receptor binding assay (SPA, 125I-eotaxin-1 displacement, hCCR3-C1 K562 cell membranes)
# test.conditions: 1 μM test compound; human Eotaxin-1 at human CCR3-Rezeptor; read-out: CCR3 % inh @ 1 μM
# Method: The CCR3 receptor binding test is based on a K562 cell line (leukemia myelogenic blast cells) transfected with the human chemokine receptor CCR3 (hCCR3-C1 cells). […] The CCR3 receptor binding assay was performed in a Scintillation Proximity Assay (SPA) design with the radioligand recombinant human ^125Iodine-eotaxin-1. […] Bound radioactivity was determined with a scintillation counter (Micro Beta “Trilux”, Wallac). […]
measured.parameter: inhibition at 1 µM (%)

{"compound": "Cc1cc(CN2CCC(N3C(=O)CC[C@@H]3C(=O)Nc3cc(C(=O)N(C)C)cc(C(C)(C)C)c3)CC2)ccc1Cl [Example 171]", "inhibition at 1 µM (%)": 99}

(P) Cc1cc(CN2CCC(N3C(=O)CC[C@@H]3C(=O)Nc3cc(C(N)=O)cc(C(N)=O)c3)CC2)ccc1Cl [Example 32]
(Q) Cc1cc(CN2CCC(N3C(=O)CC[C@@H]3C(=O)N3CCc4c(cccc4C(F)(F)F)C3)CC2)ccc1Cl [Example 65]
(R) Cc1cc(CN2CCC(N3C(=O)CC[C@H]3C(=O)NC3CCN(S(C)(=O)=O)C3)CC2)ccc1Cl (some centres unmarked) [Example 53]
Query: Hey, quick one: sort these by inhibition at 1 µM, low to high? Please list the labels according to the requested order.
Response: R, Q, P

(a) Cc1cc(CN2CCC(N3C(=O)N(C)C[C@@H]3C(=O)Nc3cccc(-c4cscn4)c3)CC2)ccc1Cl [Example 121]
(b) COc1ccc2c(c1)CN(C(=O)[C@@H]1CCC(=O)N1C1CCN(Cc3ccc(Cl)c(C)c3)CC1)CC2 [Example 72]
Query: In terms of reported inhibition at 1 µM, does a or b have the smaller number? Please reply using the label of the selected record.
Response: b

Data provenance: patent US8653075B2
